Target: IRAK4 (Homo sapiens (Human))
Sequence (Q9NWZ3 whole entry, species assumed): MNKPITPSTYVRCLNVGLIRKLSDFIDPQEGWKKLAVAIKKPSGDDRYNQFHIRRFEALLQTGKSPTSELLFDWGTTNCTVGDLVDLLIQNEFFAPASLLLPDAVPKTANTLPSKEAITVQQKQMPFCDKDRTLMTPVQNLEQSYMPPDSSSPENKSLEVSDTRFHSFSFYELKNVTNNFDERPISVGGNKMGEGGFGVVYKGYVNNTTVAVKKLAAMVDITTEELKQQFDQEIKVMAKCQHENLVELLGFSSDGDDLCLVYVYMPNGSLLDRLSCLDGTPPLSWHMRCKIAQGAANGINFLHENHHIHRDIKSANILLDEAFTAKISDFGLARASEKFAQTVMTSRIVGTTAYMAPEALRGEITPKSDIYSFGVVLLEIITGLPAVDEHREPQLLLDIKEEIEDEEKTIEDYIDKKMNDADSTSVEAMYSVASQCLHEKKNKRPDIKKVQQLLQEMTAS
Test summary: IRAK4 Inhibition Assay
Type: biochemical
Run conditions: ATP 500 μM; IRAK4 0.6 nM; 60 min at room temperature
IC50 overview
Result type: IC50 (nM)

[[record]]
compound = "CC(C)(O)[C@H](F)CNC(=O)c1cnc(Nc2ccn3nccc3c2F)cc1N[C@@H]1CCCC1(F)F"
unit_abbreviation = "nM"
meas_value = 2.1

[[record]]
compound = "CC(C)(O)[C@H](F)CNC(=O)c1cnc(Nc2ccc3nonc3c2)cc1N[C@@H]1CCCC1F (stereo partly shown) [Example 356]"
unit_abbreviation = "nM"
meas_value = 3

[[record]]
compound = "CC(C)(O)C(F)CNC(=O)c1cnc(Nc2ccc3ncsc3c2)cc1NC1CC(C(F)F)C1 (stereo not shown)"
unit_abbreviation = "nM"
meas_value = 6.9

[[record]]
compound = "CC(C)(O)[C@H](F)CNC(=O)c1cnc(Nc2ccc3ncsc3c2)cc1NC1CCSCC1"
unit_abbreviation = "nM"
meas_value = 3.5

[[record]]
compound = "Cc1cc(O)ccc1Nc1cc(Nc2ccc3ncsc3c2)ncc1C(=O)NC[C@@H](F)C(C)(C)O"
unit_abbreviation = "nM"
meas_value = 11.4

[[record]]
compound = "CC(C)NC(=O)N[C@@H](C)CCNC(=O)c1cnc(Nc2ccc3ncsc3c2)cc1NC(C)C"
unit_abbreviation = "nM"
meas_value = 7.6

[[record]]
compound = "CC(C)(F)CNc1cc(Nc2ccn3nccc3c2)ncc1C(=O)NC[C@@H](F)C(C)(C)O"
unit_abbreviation = "nM"
meas_value = 4.7

[[record]]
compound = "CC(C)Nc1cc(Nc2ccc3ncsc3c2)ncc1C(=O)NC12CCC(N)(CC1)CC2"
unit_abbreviation = "nM"
meas_value = 4.2

[[record]]
compound = "O=C(Nc1ccc(Cn2cncn2)cc1)c1cnc(Nc2ccc3ncsc3c2)cc1NC1CCCC1"
unit_abbreviation = "nM"
meas_value = 9.9

[[record]]
compound = "CNC(=O)[C@H]1CC[C@H](NC(=O)c2cnc(Nc3nc4ccnn4cc3F)cc2NC2CCOCC2)CC1"
unit_abbreviation = "nM"
meas_value = 9.5

[[record]]
compound = "CC(F)CNc1cc(Nc2ccc3ncsc3c2)ncc1C(=O)NC[C@@H](F)C(C)(C)O (stereo partly shown)"
unit_abbreviation = "nM"
meas_value = 1.7

[[record]]
compound = "CC(C)(O)[C@H](F)CNC(=O)c1cnc(Nc2nc3ccnn3cc2F)cc1NC1CCOCC1"
unit_abbreviation = "nM"
meas_value = 8.1

[[record]]
compound = "CC(C)(O)c1cnc(Nc2cc(Nc3nc4ccnn4cc3F)ncc2C(=O)NC[C@@H](F)C(C)(C)O)s1"
unit_abbreviation = "nM"
meas_value = 2.6

[[record]]
compound = "CC(C)(O)C1CCC(NC(=O)c2cnc(Nc3ccc4ncsc4c3)cc2NC2CCCOC2)CC1 (stereo not shown)"
unit_abbreviation = "nM"
meas_value = 4.2

[[record]]
compound = "CC(C)(O)[C@H](F)CNC(=O)c1cnc(Nc2ncc3ccc(F)cc3n2)cc1NC1CCOCC1"
unit_abbreviation = "nM"
meas_value = 11.9

[[record]]
compound = "CC(C)(O)[C@H](F)CNC(=O)c1cnc(Nc2ccc3ncccc3n2)cc1NC1CCOCC1F (stereo partly shown)"
unit_abbreviation = "nM"
meas_value = 11.6


---

Test system: TLR2 induced IL-6 in peripheral blood mononuclear cells (PBMCs)
Test summary: PBMC TLR2 Induced IL-6 Assay
Assay type: cell-based, human
Run conditions: Homo sapiens, PBMC, 5 h, human PBMCs, 10 μg/ml lipoteichoic acid for 5 hours, IL-6 by ELISA; value without asterisk; read-out: Cell IC50
Result type: log10(IC50) (log10 of the value in nM)

[[record]]
compound = "CC(C)(F)CNc1cc(Nc2ccc3ncsc3n2)ncc1C(=O)NC[C@@H](F)C(C)(C)O [Example 314]"
meas_value = 2.06

[[record]]
compound = "CC(C)Nc1cc(Nc2ccn3ncc(F)c3c2)ncc1C(=O)NC[C@@H](F)C(C)(C)O [Example 288]"
meas_value = 2.13

[[record]]
compound = "CC(C)(O)[C@H](F)CNC(=O)c1cnc(Nc2ccc3ncsc3c2)cc1Nc1ccc(C(=O)NC2CC2)cc1 [Example 321]"
meas_value = 3.06

[[record]]
compound = "CC1CCCC1Nc1cc(Nc2ccc3ncsc3c2)ncc1C(=O)NC[C@@H](F)C(C)(C)O (stereo partly shown) [Example 104]"
meas_value = 2.54

[[record]]
compound = "CC(C)(O)[C@H](F)CNC(=O)c1cnc(Nc2ccc3ncsc3c2)cc1NC1C2CCCC1CCC2 (stereo partly shown) [Example 419]"
meas_value = 2.26

[[record]]
compound = "CCCCNc1cc(Nc2ccc3ncsc3c2)ncc1C(=O)NC[C@@H](F)C(C)(C)O [Example 160]"
meas_value = 2.04

[[record]]
compound = "CC(C)(O)[C@H](F)CNC(=O)c1cnc(Nc2nc3ccnn3cc2F)cc1NC1CCCOC1 (stereo partly shown) [Example 422]"
meas_value = 2.88

[[record]]
compound = "O=C(NCCN1CCCC1)c1cnc(Nc2ccc3ncsc3c2)cc1NC1CCCC1 [Example 151]"
meas_value = 2.28

[[record]]
compound = "CCNC(=O)c1cnc(Nc2ccc3ncsc3c2)cc1N[C@@H](c1ccccc1)[C@H](O)CO [Example 144]"
meas_value = 2.30

[[record]]
compound = "CC(C)(O)[C@H](F)CNC(=O)c1cnc(Nc2cc3scnc3cc2F)cc1NCC(F)(F)F [Example 515]"
meas_value = 2.65

[[record]]
compound = "CCNc1cc(Nc2ccc3ncsc3c2)ncc1C(=O)NC[C@@H](F)C(C)(C)O [Example 96]"
meas_value = 2.23

[[record]]
compound = "O=C(NCCN1CCOCC1)c1cnc(Nc2ccc3ncsc3c2)cc1NC1CCCC1 [Example 154]"
meas_value = 2.73

[[record]]
compound = "CNC(=O)C12CCC(NC(=O)c3cnc(Nc4ccc5ncsc5c4)cc3NC(C)C)(CC1)CC2 [Example 229]"
meas_value = 2.69

[[record]]
compound = "CC(C)Nc1cc(Nc2ccc3ncsc3c2)ncc1C(=O)NC[C@@H](F)CO [Example 5]"
meas_value = 2.68

[[record]]
compound = "O=C(NC[C@@H](F)CO)c1cnc(Nc2ccc3ncsc3c2)cc1NC1CC1 [Example 7]"
meas_value = 2.86

[[record]]
compound = "CC(C)Nc1cc(Nc2ccc3ncsc3c2)ncc1C(=O)NC[C@@H](F)C(C)(C)O [Example 35]"
meas_value = 2.68

